- SYSTEM NAME: human CD33 G58A (human, UniProt P20138 18-364)
- Sequence (P20138 18-364 G58A limits assumed): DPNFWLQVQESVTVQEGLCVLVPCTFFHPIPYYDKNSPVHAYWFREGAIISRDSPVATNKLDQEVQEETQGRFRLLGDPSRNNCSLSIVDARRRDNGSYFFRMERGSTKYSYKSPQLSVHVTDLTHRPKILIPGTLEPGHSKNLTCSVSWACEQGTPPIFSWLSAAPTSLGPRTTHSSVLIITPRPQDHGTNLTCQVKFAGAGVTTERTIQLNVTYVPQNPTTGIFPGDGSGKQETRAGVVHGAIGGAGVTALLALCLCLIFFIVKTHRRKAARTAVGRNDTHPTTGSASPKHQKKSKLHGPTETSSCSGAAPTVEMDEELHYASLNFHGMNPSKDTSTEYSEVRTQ
- ASSAY PROTOCOL: alanine scan, flow cytometry;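 also: HEK293-T cells transiently expressing single-residue alanine mutants of CD33 (alanine swapped to serine), antibody binding read by fluorescence in duplicate, background-subtracted, expressed relative to wild-type CD33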
VALUE KIND: Mean % WT Binding (% WT)
Please give a number only; it is taken to be in % WT.

Per the record, Refmab #2 (antibody, V domains shown, Full-length format is human IgG1 Fc silent (PG-LALA); The alanine scan used IgG or Fab) VH: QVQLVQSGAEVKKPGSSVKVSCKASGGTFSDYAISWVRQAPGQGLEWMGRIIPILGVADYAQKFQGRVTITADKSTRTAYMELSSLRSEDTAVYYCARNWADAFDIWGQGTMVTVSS VL: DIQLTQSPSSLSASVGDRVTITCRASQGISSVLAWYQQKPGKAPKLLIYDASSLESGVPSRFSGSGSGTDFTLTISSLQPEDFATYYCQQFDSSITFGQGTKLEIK has Mean % WT Binding of 118
